target: morphinone reductase (Pseudomonas putida, UniProt Q51990); details: reverse reaction
Readout Label: Enzyme activity in the reverse direction

compound=CN1CC[C@]23c4c5ccc(O)c4O[C@H]2C(=O)CC[C@@]3(O)[C@H]1C5 target_of_assay="morphinone reductase (Pseudomonas putida, UniProt Q51990)" result="No reverse reaction"
compound="COc1ccc2c3c1O[C@H]1[C@@H](O)CC[C@H]4[C@@H](C2)N(C)CC[C@@]341 [dihydrocodeine]" target_of_assay="morphinone reductase (Pseudomonas putida, UniProt Q51990)" result="No reverse reaction"
compound=COc1ccc2c3c1O[C@H]1C(=O)CC[C@@]4(O)[C@@H](C2)N(C)CC[C@]314 target_of_assay="morphinone reductase (Pseudomonas putida, UniProt Q51990)" result="No reverse reaction"

Data origin, for the record: patent US5571685A
